biological target: Human Leukocyte Lipoxygenase; experiment: Human Leukocyte Lipoxygenase Assay (LDA-H); assay type: biochemical; conditions: acetone-pentane powder enzyme, 234 nm, 24° C., 5 min preincubation; read-out: Concentration (M) for 50.0 % Inhibition, IC (LDAH)
PROPERTY: IC50 (M)

[
  {
    "MOLECULE": "Nc1ccc(CCc2ccc(NC(=O)C3CS(=O)(=O)c4ccccc4C3=O)cc2)cc1 (centres unmarked) [Example 52]",
    "UNIT ABBREVIATION": "M",
    "IC50": "6e-05"
  },
  {
    "MOLECULE": "CCCCCCCCCCc1ccc(NC(=O)C2CS(=O)(=O)c3ccccc3C2=O)cc1 (centres unmarked) [Example 60]",
    "UNIT ABBREVIATION": "M",
    "IC50": "2.5e-05"
  }
]

I: O=C(Nc1ccc(CCc2ccc(O)c(O)c2)cc1)C(=O)C1=C(O)c2ccccc2OC1 [Example 150]
II: O=C(Nc1ccc(CCc2ccc(O)c(O)c2)cc1)C1Oc2c(n(-c3ccccc3)c3ccccc23)C1=O (centres unmarked) [Example 166]
III: COc1cccc(CCc2ccc(NC(=O)C3CS(=O)(=O)c4ccccc4C3=O)cc2)c1 (centres unmarked) [Example 39]
IV: O=C(Nc1ccc(CCc2ccc(Cl)cc2Cl)cc1)C1=C(O)c2ccccc2S(=O)(=O)C1 [Example 72]
V: O=C(Nc1ccc(CCc2ccc(O)c(O)c2)cc1)C(=O)C1Oc2cc3ccccc3cc2C1=O (centres unmarked) [Example 129]
q: Put the entries in order of IC50, starting with the largest number. Response field: labels, in requested order.
a: III, II, I, IV, V

###

target: Human Leukocyte Lipoxygenase; assay: Human Leukocyte Lipoxygenase Assay (LDA-H); type: biochemical; settings: acetone-pentane powder enzyme, 234 nm, 24° C., 5 min preincubation; read-out: Concentration (M) for 50.0 % Inhibition, IC (LDAH)
PROPERTY: IC50 (M)

[
  {
    "COMPOUND": "COc1ccc(CCc2ccc(NC(=O)c3sc4ccccc4c3O)cc2)cc1OC",
    "UNIT ABBREVIATION": "M",
    "IC50": "4.4e-06"
  },
  {
    "COMPOUND": "O=C(Nc1ccc(CCc2ccc(O)c(O)c2)cc1)C(=O)c1sc2ccccc2c1O",
    "UNIT ABBREVIATION": "M",
    "IC50": "8.2e-06"
  },
  {
    "COMPOUND": "COc1ccc(CCc2ccc(NC(=O)C(=O)C3=C(O)c4ccccc4OC3)cc2)cc1OC",
    "UNIT ABBREVIATION": "M",
    "IC50": "5.7e-07"
  },
  {
    "COMPOUND": "CCCCCCCCCCc1ccc(NC(=O)C(=O)c2sc3ccc(Cl)cc3c2O)cc1",
    "UNIT ABBREVIATION": "M",
    "IC50": "2.5e-05"
  },
  {
    "COMPOUND": "O=C(Nc1ccc(CCc2ccc(O)c(O)c2)cc1)C1=C(O)c2ccccc2S(=O)(=O)C1",
    "UNIT ABBREVIATION": "M",
    "IC50": "8.2e-06"
  },
  {
    "COMPOUND": "COc1ccc(CCc2ccc(NC(=O)C3CS(=O)(=O)c4ccccc4C3=O)cc2)cc1 (centres unmarked)",
    "UNIT ABBREVIATION": "M",
    "IC50": "4.5e-05"
  }
]

a: O=C(Nc1ccc(CCc2cc(Cl)cc(Cl)c2)cc1)C1=C(O)c2ccccc2S(=O)(=O)C1
b: O=C(Nc1ccc(CCc2ccc(O)c(O)c2)cc1)c1oc2ccc3ccccc3c2c1O
q: Short answer wanted: higher IC50, a or b ? Identify your pick by its label.
a: a
(a: 0.0002 M, b: 2.3e-06 M)
